- System: Antibody 7 (clone XM210 from Abcam)
- TEST SUMMARY: Cross reactivity on anti-cortisol antibody microarray, antibody 7
- Format: binding
- DETAILS: from slopes of ([apparent cortisol] vs [cross reactant])
Let's look at some compounds and their measured % cross reactivity, antibody 7.
// note: answer is a bare numeric in %

// solved cases for % cross reactivity, antibody 7 follow
COMPOUND | % cross reactivity, antibody 7 / %
C[C@H]1C[C@@H]2[C@H]([C@@H](O)C[C@@]3(C)[C@H]2CC[C@]3(O)C(=O)CO)[C@@]2(C)C=CC(=O)C=C12 [SYN-1, 6-a-methyl prednisolone] | 7
C[C@]12C=CC(=O)C=C1CC[C@@H]1[C@@H]2[C@@H](O)C[C@@]2(C)[C@H]1CC[C@]2(O)C(=O)CO [SYN-7, Prednisolone] | 5

Turning now to a further compound:
QUERY: Need % cross reactivity, antibody 7 of C[C@]12CCC(=O)C=C1CC[C@@H]1[C@@H]2C(=O)C[C@@]2(C)[C@H]1CC[C@]2(O)C(=O)CO [SYN-6, Cortisone] , thanks.
RESULT: 1
